# growth values compiled below
system: NCI-H226 lung; assay: NCI-60 one-dose screen, 48 h (100 = growth as untreated, 0 = no growth, -100 = all killed); settings: 10 µM unless noted
This is part of a sample that, as a whole, favours compounds with a hit. Of some 83,000 tested, about 20% had one in any assay.
Only the number, expressed in %, is required.

Consider the following illustrative entries.
O=c1c2c3c(sc2nc(N/N=C/c2ccc(Br)cc2)n1Cc1ccccc1)CCCC3
79.6
CC(=O)c1ccc(NCC(=O)Nc2ccccn2)cc1
91.3
Cc1ccc(-c2c(-c3ccccc3)c(=O)oc3ccc(C)cc23)cc1
89.6
O=C(Nc1ccc(-n2cc(-c3ccncc3)c(-c3ccc(Cl)c(O)c3)n2)cc1)N1CCOCC1
103
COc1cc(N=Nc2ccc(N)cc2)c(OC)cc1N=Nc1ccccc1.[Cl][Zn][Cl]
104

Please look up its growth: `COC(=O)[C@]12CC[C@@H](C)[C@H](C)[C@@H]1C1=CC[C@@H]3[C@@]4(C)C(C=O)=C[C@@](C)(COC(=O)c5ccco5)[C@@H]4C(=O)C[C@@]3(C)[C@]1(C)CC2`
22.5

How about this compound: `O=C(NCCc1ccc(O)c(O)c1)C12CC3CC(CC(C3)C1)C2`
93.7

Also need `Cc1ccc(S(=O)(=O)NCC[C@@H]2C[C@H]2c2cc3ccccc3s2)cc1` , thanks.
87.8

Follow-up entry: `COc1cccc(-c2nn(-c3ccccc3)cc2-c2ccnc(NCCNC(=O)c3ccccc3)c2)c1`
70.4

---

test system: SK-MEL-5 melanoma; test: NCI-60 one-dose screen, 48 h (100 = growth as untreated, 0 = no growth, -100 = all killed); conditions: 10 µM unless noted
About 83,000 compounds went through this panel and 20% of them were active in at least one assay; those are over-represented in the sample as a whole.
Entries are sorted into classes by growth as follows: low interval: < 50%; middle interval: ≥ 50% and < 90%; high interval: ≥ 90%

N[C@@H](CCCCNCC(=O)O)C(=O)O
high interval
CCc1c2c(nc3ccc(OC(=O)NCc4ccc(B5OC(C)(C)C(C)(C)O5)cc4)cc13)-c1cc3c(c(=O)n1C2)COC(=O)[C@]3(O)CC
low interval
COc1cc(C2CC(=O)Nc3c2c(C)nn3-c2nc3ccccc3[nH]2)c(OC)c2c1OCO2 (configuration not stated)
middle interval
COc1ccc(-c2cc(-c3cc(OC)c(OC)c(OC)c3)c(C#N)c(N3CCOCC3)n2)cc1O
middle interval
CCN(CC)CCN1C(=O)c2c(c(C)c3c(oc4cc(O)ccc43)c2C)C1=O
middle interval

Would you mind sorting `O=c1[nH]ccc2nc(N3CCC(O)CC3)nc(Nc3ccc(N4CCOCC4)cc3)c12` into the appropriate category?
low interval

Can you handle `CC(C)CCC[C@@H](C)[C@H]1CC[C@H]2[C@@H](Nc3ccc(O)cc3)CCC[C@]12C` next?
high interval

Ok, now CC1(c2ccccc2)NC(=O)N(NC(=O)CSc2nc(-c3cccs3)nc3ccccc23)C1=O (configuration not stated)
middle interval

Please do the same for `O=C(c1ccccc1)c1c(/C=C/c2ccccc2)nc2ccccc2c1/C=C/c1ccc(Br)cc1` as well.
high interval

Now give it for COCCc1ccc(OCC(O)CNC(C)C)cc1 (configuration not stated) too.
high interval

Thanks! And `C=C1C(=O)O[C@H]2[C@H]1CC/C(COC(=O)C(=O)c1c[nH]c3ccc(OC)cc13)=C\CC[C@@]1(C)O[C@@H]21` ?
low interval

Next up: `Cc1c(O)cc(-c2cnc(N/N=C\c3ccc(Cl)cc3)s2)c(O)c1C`
middle interval

Also `CC/C=C\C/C=C\C[C@H](O)C/C=C1/C(=O)C=C[C@@H]1C/C=C\CCCC(=O)O` , if possible.
low interval

Record: `Cc1ccc(S(=O)(=O)n2cc(CNc3ccc(N4CCOCC4=O)cc3)c3ccccc32)cc1`
high interval

---

Let's look at some compounds and their measured growth.
tested on: TK-10 renal; assay: NCI-60 one-dose screen, 48 h (100 = growth as untreated, 0 = no growth, -100 = all killed); details: 10 µM unless noted
Compounds without any hit were thinned out: in the full panel of roughly 83,000, 20% have a hit. Activity calls are given as the source filed them. The calls were made as follows: active = growth percent below 10; inactive = the rest.

CCOC(=O)c1c2ncccc2n2c(=O)n(-c3ccccc3C)nnc12
146% (inactive)
OC(COc1ccccc1Cl)COc1ccccc1Cl
102% (inactive)

--- query ---
For the compound `COc1ccc(-c2nc3ccc4[nH]ncc4c3c3c2CCCC3)cc1B(O)O` , what growth is on record?
49.5% (inactive)

---

test system: SN12C renal; experiment: NCI-60 one-dose screen, 48 h; conditions: 10 µM unless noted
This is part of a sample that, as a whole, favours compounds with a hit. Of some 83,000 tested, about 20% had one in any assay. Activity calls are given as the source filed them. The calls were made as follows: active = growth percent below 10; inactive = the rest.
Respond only with the outcome that fits, drawn from active, inactive

COc1cc(-c2n/c(=C\c3c(O)[nH]c4ccc(Cl)cc34)cc3c2=Nc2ccccc2-3)cc(OC)c1OC
active

Returns: the outcome recorded for `N#Cc1c(-c2ccccn2)[nH]c(=S)[nH]c1=O` in this assay.
inactive

Same thing, different molecule: COCCc1ccc(OCC(O)CNC(C)C)cc1 (centres undefined)
inactive

---

tested on: HS 578T breast; assay: NCI-60 one-dose screen, 48 h; settings: 10 µM unless noted
Compounds without any hit were thinned out: in the full panel of roughly 83,000, 20% have a hit. The source made the active and inactive calls. The calls were made as follows: active = growth percent below 10; inactive = the rest.
// classify into active, inactive

O=C1Nc2ccccc2/C1=C/c1cn(C(=O)c2ccc(Cl)cc2)c2ccccc12
inactive
COc1cc(OC)cc(C2CC(=O)Nc3c2c(C)nn3-c2nc3ccccc3[nH]2)c1 (configuration not stated)
inactive
Cc1ccc(Cl)cc1NC(=O)c1cc2ccccc2cc1O
active

Give the logged outcome of this assay for the following compound: `C=C1C(=O)O[C@H]2[C@H]1CC/C(COC(=O)C(=O)c1cn(C)c3ccc(OC)cc13)=C\CC[C@@]1(C)O[C@@H]21`
active

Field entry: `Cc1ccc(/C=C2\C(=O)N(C)c3ccc(S(=O)(=O)Nc4ccc(C(C)(C)C)cc4)cc32)s1`
active

// next record `N#C/C(=C\c1ccc2c(c1)OCO2)n1nnc2cc(F)c(F)cc21`
inactive

Subsequent entry: `COC(=O)[C@]12CC[C@@H](C)[C@H](C)[C@@H]1C1=CC[C@@H]3[C@@]4(C)C(C=O)=C[C@@](C)(COC(=O)/C=C/c5ccccc5)[C@@H]4[C@H](O)C[C@@]3(C)[C@]1(C)CC2`
active

Next up: `COC(=O)[C@]12CC[C@@H](C)[C@H](C)[C@@H]1C1=CC[C@@H]3[C@@]4(C)C(C=O)=C[C@@](C)(COC(=O)c5ccco5)[C@@H]4C(=O)C[C@@]3(C)[C@]1(C)CC2`
inactive

One more compound: `Cc1nn(-c2ccccc2)c(Cl)c1/C=C(/NC(=O)c1ccccc1)c1nc2ccccc2[nH]1`
inactive

What do we get for `Cc1c(C)c2c(c(C)c1OCC(=O)O)CC[C@@](C)(CCC[C@@H](C)CCC[C@@H](C)CCCC(C)C)O2` ?
inactive

---

Tested on: SF-268 CNS
Assay: NCI-60 one-dose screen, 48 h (100 = growth as untreated, 0 = no growth, -100 = all killed)
Settings: 10 µM unless noted
Protocol: Cells are grown in 96 well plates and exposed to the test compound for 48 hours. Compounds are tested at a single concentration, which is 10^-5 M for most compounds. The reported endpoint is percent growth (GI% or GIPRCNT), where numbers from 0 - 100% represent growth inhibition, and numbers from -100% - 0 represent cell death. For example, a value of 40 represents 60% growth inhibition. A value of 0 means no net growth occurred over the course of the experiment. […]
About 83,000 compounds went through this panel and 20% of them were active in at least one assay; those are over-represented in the sample as a whole. Activity calls are given as the source filed them. Rule for the calls: active = growth percent below 10; inactive = the rest.
PARAMETER_MEASURED: growth

The examples below pair each entry with its known result.
COc1cc2nc(Cl)nc(Nc3ccc(S(=O)(=O)Nc4nccs4)cc3)c2cc1OC
109% (inactive)
c1ccc2c(c1)nc(CN1CCOCC1)n1cc(N3CCCC3)nc21
110% (inactive)
CC(C)=C[C@@H]1c2c(c3ccccc3n(C)c2=O)O[C@H]2c3c(c4ccccc4n(C)c3=O)OC(C)(C)[C@@H]12
86.1% (inactive)

Request the reported growth associated with Cc1c(C(=O)NC(Cc2ccccc2)C(O)C(=O)NCc2ccc(F)cc2)[nH]c2ccccc2c1=O (stereo not given)
104% (inactive)

What do you have for `O=Cc1c[nH]c2ccc(-c3csc4ccccc34)cc12` ?
44.5% (inactive)

What do you have for `COc1cccc(-c2nn(-c3ccccc3)cc2-c2ccnc(NCCNC(=O)c3ccccc3)c2)c1` ?
78.3% (inactive)

What about COc1ccc(C2c3ccc4ccccc4c3Oc3nc(C)[nH]c(=O)c32)cc1 (stereo not given) ?
94.3% (inactive)

Please do the same for `O=C(Nc1ccccc1-c1nc2ccccc2c(=O)[nH]1)c1cc2ccccc2[nH]1` as well.
91.9% (inactive)

Then what about the compound `O=c1c2cc(F)ccc2sc2c(Nc3cccnc3)nc3ccccc3c12` ?
89.5% (inactive)

How about this compound: `O=C(c1ccccc1)c1c(/C=C/c2ccccc2)nc2ccccc2c1/C=C/c1ccc(Br)cc1`
91.6% (inactive)
